Just for reference, patent US20070244048A1 is where these values come from.

# measured-target: T1, mouse NMUR2 (mouse, UniProt Q8BZ39 1-395)
# T1 construct: whole, on cells; also called mouse R2
# T1 sequence (Q8BZ39 whole entry): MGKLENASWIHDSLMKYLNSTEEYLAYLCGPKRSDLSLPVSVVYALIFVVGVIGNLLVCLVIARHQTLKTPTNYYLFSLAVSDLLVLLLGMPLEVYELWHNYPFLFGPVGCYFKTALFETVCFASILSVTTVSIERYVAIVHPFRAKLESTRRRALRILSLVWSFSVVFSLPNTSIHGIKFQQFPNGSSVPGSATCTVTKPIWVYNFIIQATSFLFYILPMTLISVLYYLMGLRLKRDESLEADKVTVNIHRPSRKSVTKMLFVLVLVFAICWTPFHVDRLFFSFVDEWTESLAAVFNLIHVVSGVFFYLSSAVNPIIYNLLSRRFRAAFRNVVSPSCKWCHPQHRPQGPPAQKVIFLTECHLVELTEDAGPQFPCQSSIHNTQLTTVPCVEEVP
# test-method-notes: 125I-hNMU-25 displacement, cell membranes
No end group written: not given here.
quantity: pIC50
Hey, just a heads up that pIC50 is the negative log base 10 of the concentration in molar.

Request: Give pIC50 for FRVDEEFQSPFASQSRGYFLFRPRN-NH2 (also called hNMU-25; native hNMU) [human NMU-25]
Result: 9.70
